# Test system: UO-31 renal
# measurement notes: NCI-60 one-dose screen, 48 h
# experimental conditions: 10 µM unless noted
# Method: Growth inhibition of the UO-31 human tumor cell line is measured as a screen for anti-cancer activity. Cells are grown in 96 well plates and exposed to the test compound for 48 hours. Compounds are tested at a single concentration, which is 10^-5 M for most compounds. The reported endpoint is percent growth (GI% or GIPRCNT), where numbers from 0 - 100% represent growth inhibition, and numbers from -100% - 0 represent cell death. For example, a value of 40 represents 60% growth inhibition. […]
The panel holds about 83,000 compounds, 20% with a hit somewhere; the sample as a whole holds those more often. Calls of active or inactive are those of the source. Rule for the calls: active = growth percent below 10; inactive = the rest.
Pick one and only one: true = active, false = inactive

Solved cases (6 shown):
1) COc1ccc(CNc2ccc3nc(CCC4CCCCC4)[nH]c3c2)cc1: false
2) CCCNNC(=O)c1ccc(CNC(=O)/C=C/c2ccccc2)cc1: false
3) CCNc1nc(-c2ccc(Cl)c(OC)c2)c(-c2ccnc(NCCNS(=O)(=O)c3ccc(Cl)cc3)n2)s1: false
4) C=C(CNCCO)[C@@H]1CC[C@]2(CO)CC[C@]3(C)[C@H](CC[C@@H]4[C@@]5(C)CCC(NCCO)C(C)(C)[C@@H]5CC[C@]43C)[C@@H]12 (some centres undefined): false
5) CSc1nc(CC(C)C)c(C#N)c(=O)n1C: false
6) CC(=O)CC(=O)c1ccccc1.[Cu+2]: false

stdin: Lab log entry: `CNC(=O)c1cc(Oc2ccc3nc(NC(=O)c4cc(C(F)(F)F)cc(C(F)(F)F)c4)sc3c2)ccn1` — outcome as called in the assay?
stdout: true
